Test system: A549
protocol: Antiproliferative activity against human A549 cells assessed as reduction in cell growth incubated for 72 hrs by MTT assay
Type: functional, cell-based
condition parameters: A549, 72 h
pIC50: −log10 of the molar value.

{"columns": ["cpd smiles", "pIC50"],
 "data": [
  ["COc1cc(NCc2ccco2)ccc1Nc1ncc(Cl)c(Nc2ccccc2NC(C)=O)n1", "< 5.00"],
  ["COc1cc(SCc2ccc(CN3CCC(C)CC3)o2)ccc1Nc1ncc(Cl)c(Nc2ccccc2NS(C)(=O)=O)n1", "< 5.00"],
  ["CCN(CC)Cc1ccc(CNc2ccc(Nc3ncc(Cl)c(Nc4ccccc4NS(C)(=O)=O)n3)c(OC)c2)o1", 5.45],
  ["COc1cc(NCc2ccc(CN3CCOCC3)o2)ccc1Nc1ncc(Cl)c(Nc2ccccc2NS(C)(=O)=O)n1", "< 5.00"],
  ["CCN(CC)Cc1ccc(CSc2ccc(Nc3ncc(Cl)c(Nc4ccccc4NS(C)(=O)=O)n3)c(OC)c2)o1", "< 5.00"],
  ["COc1cc(NCc2ccc(CN(C)C)o2)ccc1Nc1ncc(Cl)c(Nc2ccccc2NS(C)(=O)=O)n1", 5.52],
  ["COc1cc(SCc2ccc(CN3CCCC3)o2)ccc1Nc1ncc(Cl)c(Nc2ccccc2NS(C)(=O)=O)n1", "< 5.00"],
  ["COc1cc(SCc2ccc(CN3CCSCC3)o2)ccc1Nc1ncc(Cl)c(Nc2ccccc2NS(C)(=O)=O)n1", "< 5.00"]
]}
